- System tested: JAK3 (recombinant human kinase domain; h-jak3(810-1124)) (Homo sapiens, UniProt P52333)
- Construct: h-jak3(810- 1124)-sf9-c; made in house; host or cells: Sf9 insect cells
- Sequence (P52333 810-1124): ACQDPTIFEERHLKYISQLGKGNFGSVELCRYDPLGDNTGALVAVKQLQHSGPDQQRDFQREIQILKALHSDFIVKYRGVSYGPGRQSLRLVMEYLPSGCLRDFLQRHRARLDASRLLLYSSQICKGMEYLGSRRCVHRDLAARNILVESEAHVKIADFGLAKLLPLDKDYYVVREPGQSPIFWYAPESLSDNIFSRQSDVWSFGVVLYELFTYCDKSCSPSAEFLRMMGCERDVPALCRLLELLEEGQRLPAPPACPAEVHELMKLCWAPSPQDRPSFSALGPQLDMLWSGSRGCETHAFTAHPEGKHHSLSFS
- Measurement protocol: Determination of IC50 of Janus Kinase (JAK) inhibition: JAK3, radioactive end-point assay with 33P-ATP
- Format: biochemical
- Measurement context: JAK3 kinase domain; ATP 1.5 uM, peptide 50 uM, 20 minutes, room temperature, 10% DMSO; read-out: Ic50 h-jak3(810-1124)-sf9-c:no additive
Value type: IC50 (nM)

(1) CC[C@H](C)NC(=O)c1c[nH]c2ncc(Oc3ccc4c(c3)[C@H](NC(C)=O)CC4)nc12
(2) CC(Cn1ccnc1)NC(=O)c1ccc(-c2cnc3[nH]cc(C(=O)N[C@@H](C)C(C)(C)C)c3n2)s1 (stereo partly shown)
(3) C[C@H](NC(=O)c1c[nH]c2ncc(C3=CCCCC3)nc12)C(C)(C)O
(4) CC(C)NC(=O)c1c[nH]c2ncc(Oc3cccc4c3OC(C)(C)C4)nc12
input: Which order do these fall in by IC50? Give them lowest to highest. Arrange the labels as the request states and list them.
output: 2, 3, 1, 4

The values you see were collected from patent US20140155376A1.
